Data provenance: patent US20190092852A1

Provide the reported pKd of each item.
Molecular target: T1, cyno IL-33 N-His (cynomolgus monkey)
T1 chain: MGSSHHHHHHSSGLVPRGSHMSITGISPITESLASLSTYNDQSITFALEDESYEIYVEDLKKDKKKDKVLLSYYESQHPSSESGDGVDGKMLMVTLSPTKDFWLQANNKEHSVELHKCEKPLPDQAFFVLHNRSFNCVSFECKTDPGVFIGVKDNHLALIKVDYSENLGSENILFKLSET
Assay: SPR Biacore T200, 37 C
Answers are plain numbers, as −log10 of the molar value.

INSERT INTO results (binder, metric, value_measured) VALUES
  ('H4H9676P (antibody, V domains shown) VH: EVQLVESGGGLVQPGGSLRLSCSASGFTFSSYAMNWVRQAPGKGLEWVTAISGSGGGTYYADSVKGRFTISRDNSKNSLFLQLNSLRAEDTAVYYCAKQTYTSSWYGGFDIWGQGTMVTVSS VL: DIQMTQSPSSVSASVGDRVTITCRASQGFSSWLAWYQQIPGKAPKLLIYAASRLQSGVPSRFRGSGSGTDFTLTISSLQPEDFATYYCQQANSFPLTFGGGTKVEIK', 'pKd', 8.16),
  ('H4H9667P (antibody, V domains shown) VH: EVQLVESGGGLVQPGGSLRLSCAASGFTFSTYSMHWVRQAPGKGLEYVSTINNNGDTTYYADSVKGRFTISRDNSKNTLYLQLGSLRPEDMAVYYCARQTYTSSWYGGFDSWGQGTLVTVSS VL: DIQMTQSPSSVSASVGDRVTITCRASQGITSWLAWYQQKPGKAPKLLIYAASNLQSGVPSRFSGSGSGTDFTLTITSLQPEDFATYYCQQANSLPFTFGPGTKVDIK', 'pKd', 8.27);

API: the following record is the query input.
For the binder 10C12.38.H6.87Y.58I IgG4 (antibody, V domains shown, also called anti-IL33 10C12.38.H6.87Y.58I IgG4) VH: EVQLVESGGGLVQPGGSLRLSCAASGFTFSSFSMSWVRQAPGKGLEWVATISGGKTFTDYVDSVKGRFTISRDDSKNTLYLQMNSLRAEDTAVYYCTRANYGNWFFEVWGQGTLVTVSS VL: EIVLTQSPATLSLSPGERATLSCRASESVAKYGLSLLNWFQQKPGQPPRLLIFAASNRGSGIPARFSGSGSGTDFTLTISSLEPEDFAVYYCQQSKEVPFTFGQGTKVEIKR , give its measured pKd value.
9.32
